- Test system: Staphylococcus epidermidis
- EXPERIMENT: Antimicrobial activity against Staphylococcus epidermidis ATCC 12228 after 18 hrs by twofold serial microdilution method
- Type: functional
- SETUP CONDITIONS: ATCC 12228, 18 h
Values of MIC strictly less than 30 µg/mL map to criterion met, and values of at least 30 µg/mL map to criterion not met.

Some solved entries appear below for comparison.
>>> print(df.to_string())
                                compound        label_value
0         CSCCCNC(=S)Nc1cccc(C(F)(F)F)c1  criterion not met
1   Fc1ccc(NC(=S)Nc2cccc(C(F)(F)F)c2)cc1      criterion met
2  FC(F)(F)c1cccc(NC(=S)Nc2cccc(Cl)c2)c1  criterion not met
3     FC(F)(F)c1cccc(NC(S)=NCc2ccccc2)c1  criterion not met

Strictly below 30 µg/mL: is that where MIC of "FC(F)(F)c1cccc(NC(=S)Nc2cccc(Br)c2)c1" sits?
criterion met

Is 30 µg/mL strictly greater than the compound's reported MIC? compound: "FC(F)(F)c1cccc(NC(S)=Nc2ccc(Cl)c(Cl)c2)c1"
criterion met

Here's an entry: "FC(F)(F)c1cccc(NC(=S)Nc2ccc(Cl)cc2)c1" . Is its MIC below 30 µg/mL?
criterion met

Hi there! Is MIC for "FC(F)(F)c1cccc(NC(=S)NCCc2ccccc2)c1" below 30 µg/mL, do you know?
criterion met

Does the reported MIC of the following compound sit strictly below 30 µg/mL? "Fc1cccc(NC(=S)Nc2cccc(C(F)(F)F)c2)c1"
criterion met

Please determine if "COc1cccc(NC(=S)Nc2cccc(C(F)(F)F)c2)c1" is below 30 µg/mL in terms of MIC.
criterion not met

Dear reviewer, please state whether "C=C(C)CNC(=S)Nc1cccc(C(F)(F)F)c1" has MIC strictly beneath 30 µg/mL.
criterion not met

# strict comparison: is reported MIC < 30 µg/mL? input = "Fc1ccc(NC(=S)Nc2cccc(C(F)(F)F)c2)cc1Cl"
criterion met

Could you please tell me whether MIC recorded for "FC(F)(F)c1cccc(NC(=S)NCc2ccco2)c1" is less than 30 µg/mL?
criterion not met

Decide: MIC of "CCNC(=S)Nc1cccc(C(F)(F)F)c1" strictly below 30 µg/mL?
criterion not met

Decide: MIC of "COC(=O)c1ccccc1NC(=S)Nc1cccc(C(F)(F)F)c1" strictly below 30 µg/mL?
criterion not met

# strict comparison: is reported MIC < 30 µg/mL? input = O=C(O)c1cn(C2CC2)c2cc(N3CCNCC3)c(F)cc2c1=O [CIPROFLOXACIN]
criterion met

Threshold test, MIC < 30 µg/mL: "O=C(NC(=S)Nc1cccc(C(F)(F)F)c1)c1ccccc1"
criterion not met

* * *

- Tested on: Vaccinia virus
- EXPERIMENT: Antiviral activity against Human Vaccinia virus ATCC VR-1549 infected in African green monkey Vero 76 cells assessed as reduction of virus-plaque formation after 3 days by crystal violet staining
- Type: functional, organism-based
- SETUP CONDITIONS: Orthopoxvirus vaccinia, ATCC VR-1549, Vero, 72 h
Could you please report measured EC50 for the items listed next?

                            chemical_string  meas_value
0        Fc1ccccc1NC(=S)Nc1cccc(C(F)(F)F)c1     > 64 µM
1  FC(F)(F)c1cccc(NC(S)=Nc2ccc(Cl)c(Cl)c2)c1     > 16 µM
2               CCNC(=S)Nc1cccc(C(F)(F)F)c1    > 100 µM
3        FC(F)(F)c1cccc(NC(S)=NCc2ccccc2)c1     > 35 µM

# map each molecule to its EC50
1. CCCCc1ccc(NC(=S)Nc2cccc(C(F)(F)F)c2)c(C)c1
2. O=C(NC(=S)Nc1cccc(C(F)(F)F)c1)c1ccccc1
3. FC(F)(F)c1cccc(NC(=S)NCc2ccco2)c1
4. CC[C@H]1CC[C@H](c2ccc(NC(=S)Nc3cccc(C(F)(F)F)c3)cc2)CC1
5. O=[N+]([O-])c1ccc(NC(=S)Nc2cccc(C(F)(F)F)c2)cc1
6. Fc1ccc(NC(=S)Nc2cccc(C(F)(F)F)c2)cc1Cl

1. > 18 µM
2. > 100 µM
3. > 50 µM
4. > 10 µM
5. > 10 µM
6. > 20 µM

Value of measured EC50 for the entry "FC(F)(F)c1cccc(NC(=S)Nc2ccc(I)cc2)c1" : > 9.5 µM
